# Test system: Saccharomyces cerevisiae
# EXPERIMENTAL PROTOCOL: protein stability index of tFT-peptide fusion (C-terminal peptide) (PSI (0-1 scale)); higher = more stable (slower turnover);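 further: PSI is a weighted mean of sequencing reads over stability bins, variants kept only with over 10 reads, mCherry proximal and sfGFP distal, peptide attached via GGGS linker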
# ASSAY SETUP: genetic background: wild type; temperature: 30 C
RESULT TYPE: protein stability index

# CHAIN SEQUENCE, NUMERIC READOUT
rows = [
    ("TNYQKANIRINN", 0.667),
    ("RIPSKSHAWVLV", 0.483),
    ("PPLPPSPPAPPP", 0.629),
    ("SQGSCCTALDVA", 0.675),
    ("GSYDLMGFQFFI", 0.632),
    ("QAKNNKKQKGWQ", 0.646),
    ("TPPPFRLPAPSL", 0.71),
    ("AAEPGGGTALRG", 0.637),
    ("PPPLLPPHPPGL", 0.701),
    ("CSAESASPAERY", 0.654),
    ("GVYVGWFMRSGG", 0.678),
    ("VKTNPEGDGKQE", 0.671),
    ("VGWGGGESLGWV", 0.694),
    ("VALNCWGYQWMG", 0.689),
    ("FLSPSLLSLSSP", 0.681),
    ("YPSRSPFLSLSC", 0.683),
    ("CHALPPLLPDPL", 0.715),
    ("GENAIVEVWAGG", 0.686),
    ("LAGLNDSVRRAV", 0.749),
    ("DRWIGLWGGLWV", 0.63),
    ("CRLTAWDESGSG", 0.673),
    ("VMFCRFPLRFGC", 0.475),
    ("SILFMYPARNAP", 0.718),
    ("DKKKNKDQKEKI", 0.731),
    ("CFRGGLLSESVV", 0.671),
    ("PLPRLRRPAPPH", 0.667),
    ("FLLEVFVLGRTL", 0.474),
    ("GGLGREKLGGWR", 0.65),
    ("RLSRCFDSHLGG", 0.696),
    ("RSKHNEDRVVYI", 0.709),
    ("KDRVGYKEIITG", 0.695),
    ("AIPLPVLSFPPL", 0.737),
    ("FVLLSVCFFGCL", 0.442),
    ("LNIVVTQNKNKK", 0.73),
    ("KQSNGEFNIATP", 0.648),
    ("FVMLSFLVSSLP", 0.426),
    ("PPSRAPPAFPPL", 0.827),
    ("GCTTDQIENEIR", 0.704),
    ("LDARYRSSVGFK", 0.689),
    ("QSFGSYYLTIAL", 0.67),
    ("STAPRYNGRKYS", 0.702),
]

====

# Tested on: Saccharomyces cerevisiae
# EXPERIMENTAL PROTOCOL: protein stability index of tFT-peptide fusion (C-terminal peptide) (PSI (0-1 scale)); higher = more stable (slower turnover)
# ASSAY SETUP: genetic background: wild type; temperature: 30 C
Recorded protein stability index for the following sequences

# CHAIN SEQUENCE, protein stability index
records = [
    ("AFLDISIPSSSL", 0.686),
    ("GISPDGSSIMAA", 0.689),
    ("SFFSVQIQFGLS", 0.617),
    ("RCSDILGKGKHV", 0.661),
    ("LLSIGTSTLFLL", 0.636),
    ("FGFFLFIFFFFR", 0.402),
    ("RKMYRIKKEIKI", 0.641),
    ("RVVMIYAQWCLP", 0.623),
    ("QSIESKKIKQKE", 0.711),
    ("SPPTPPPSPPFL", 0.523),
    ("LSRPPPPLLPSV", 0.749),
    ("WVWKRLTGQDGA", 0.668),
    ("VLVTFFIRSGVS", 0.411),
    ("CVLLSEVNRTMG", 0.646),
    ("DQDVPLWGLVSM", 0.682),
    ("FVRLFSGTLKSV", 0.687),
    ("MGSQATPQRENS", 0.659),
    ("FGRSHPFWVVDV", 0.697),
    ("AFRFFWFFFFTS", 0.445),
]

====

# System: Saccharomyces cerevisiae
# EXPERIMENTAL PROTOCOL: protein stability index of tFT-peptide fusion (C-terminal peptide) (PSI (0-1 scale)); higher = more stable (slower turnover)
# ASSAY SETUP: genetic background: cdc53-1; temperature: 37 C

# CHAIN SEQUENCE, protein stability index
rows = [
    ("WDLYFSVVYRVV", 0.484),
    ("CLFLNCRFYMFL", 0.898),
    ("CTFFCICVFFLL", 0.413),
    ("GVCSFFVCVFFV", 0.319),
    ("TLLSSIFLCLVL", 0.645),
    ("GIFVWWFWGCCG", 0.585),
    ("LRFVCALGYCVW", 0.645),
    ("FILSLSFVFSRP", 0.501),
    ("RVVITYLVLSNR", 0.686),
    ("FVWAVGLVSASV", 0.527),
    ("LYVLNILSFVCV", 0.25),
    ("AGVRCPLFWLVC", 0.622),
    ("PCLLRYLVHPFP", 0.765),
    ("FGVSLFLPLSVV", 0.415),
    ("LLSGHFRLLLAF", 0.149),
    ("VCLLGWGVRLVS", 0.729),
    ("YVIGLLFVVSGV", 0.366),
    ("VFFGLYLVTFTS", 0.302),
    ("KKKEIIKIIKIN", 0.643),
    ("IRSLRPFLLPLF", 0.731),
    ("NAPSAIQKNKKC", 0.689),
    ("RRLRPQTVAFLS", 0.717),
    ("SSCLPAPPPLPL", 0.747),
    ("CSYPTLSMYSTT", 0.766),
    ("PYPPTSLPPTWQ", 0.746),
    ("SVPRTRAPRLIS", 0.73),
    ("GILLLLISRVVF", 0.373),
    ("VVCLCEYRLHIF", 0.274),
    ("FCVLLFCAVSDL", 0.383),
    ("FLRLSFLIFPLH", 0.629),
    ("MCRMYELYVTSS", 0.568),
    ("SLSIFCLMLMLF", 0.601),
    ("RLILAIVVSGGL", 0.425),
    ("VEIKSKRMLVVI", 0.538),
    ("RVFRRFCCVISM", 0.342),
    ("GFVLLCFCCRTW", 0.421),
    ("PFFLLAGITVAC", 0.0625),
    ("SVKRVVPCLVSC", 0.468),
    ("FMPFSLLALFVW", 0.318),
    ("RSYAYIIVATVA", 0.197),
    ("GILILRLILCLF", 0.302),
    ("GDINRNTRYLEK", 0.751),
    ("GWRRRIWLCRLQ", 0.741),
    ("GVVCVLGFALFV", 0.507),
    ("GCLFMQVSLFWR", 0.164),
    ("GYLFICSWCEGF", 0.503),
    ("WVFVVWFVFVVG", 0.311),
    ("RVFVGLVDFLFW", 0.553),
    ("DRRYIISLIYIL", 0.505),
    ("CRLCVFGVWFCG", 0.535),
    ("LCVVVICCLMAR", 0.198),
    ("WLFAILPSRLIA", 0.373),
    ("VWFLLFVVWCGS", 0.282),
    ("LFYVSFLFMLLF", 0.348),
    ("VFFHFFVCWRFV", 0.231),
    ("LPLLLFYLPIIW", 0.479),
    ("LYLCLVSPVVVL", 0.172),
    ("DSTLLYRPPSPA", 0.713),
    ("ARRFLVRRFILF", 0.658),
    ("ICFFQGVVVLFR", 0.403),
    ("PPAPTPFPPSPR", 0.722),
    ("FCGWLGVYLVKG", 0.658),
    ("CMIACYALLRLL", 0.256),
    ("AYSVIPSLALLP", 0.741),
    ("VGVVVVGDVLVW", 0.375),
    ("QNVKRIVRHMLT", 0.691),
    ("PVSEPCAWRIIA", 0.689),
    ("HDRLRGVFWRVP", 0.739),
    ("VCVFFRLCIVWY", 0.101),
    ("CLFHQFITLLVN", 0.177),
    ("LINHSWLLLSVL", 0.432),
    ("ISFQFFVCLCAR", 0.181),
    ("SQSNQSIIRKNV", 0.713),
    ("LFSIFMSYRVYI", 0.435),
    ("PWFCYVQLVVPV", 0.266),
    ("FFFFSMFSFFIP", 0.576),
    ("FFFVLVSGWWGV", 0.344),
    ("VIYYVRVGLVLS", 0.115),
    ("YPVAWSSAIIIR", 0.453),
    ("VFFCLFVLFLSG", 0.397),
    ("FVMLSFLVSSLP", 0.489),
    ("ECLRLTTKKKIN", 0.733),
]

Attribution: the supplement of paper PMC10724198
